Measured GI50 of individual entries
System: U-251
Assay Info: NCI tumour cell line growth inhibition, 48 h
The source made the active and inactive calls. Cut-off read from the data, not from the text of the source: active = GI50 up to about 1.1 µM and inactive = higher. Non-standard residues stand in square brackets, D forms with d. Residues, ends and D or L forms follow the SMILES beside them. ξ: configuration not given here. *: point of attachment. NMeF = CN[C@@H](Cc1ccccc1)C(=O)O; NMeV = CN[C@H](C(=O)O)C(C)C; ξNMeV = CNC(C(=O)O)C(C)C; Boc = CC(C)(C)OC(=O)*; OBn = c1ccc(CO*)cc1

These solved cases illustrate the format of a correct answer.
1) CC(C)C(C(=O)N(C)[C@H](C(=O)N1CCC[C@H]1C(=O)N(C)[C@@H](Cc1ccccc1)C(=O)OCc1ccccc1)C(C)C)N(C)C(=O)[C@@H](NC(=O)OC(C)(C)C)C(C)C (some centres undefined) (Boc-V[ξNMeV][NMeV]P[NMeF]-OBn); > 31.6 µM (inactive)
2) CN1C(=O)CN2C(Cl)(Cl)C2(c2ccccc2F)c2cc([N+](=O)[O-])ccc21 (centres undefined); 57.1 µM (inactive)
3) Cc1nc2c(sc3nc4c(cc32)CCC4)c(=O)o1; > 83.2 µM (inactive)
4) O=C(NC(=S)Nc1ccc2c(c1)Sc1ccccc1O2)c1ccccc1; 20.7 µM (inactive)
5) COc1ccc(C(=O)O[C@H]2[C@@H]3C=CO[C@@H](OC4OC(CO)C(O)C(O)C4O)[C@@H]3[C@@]3(CO)O[C@@H]23)cc1O (some centres undefined); > 100 µM (inactive)
6) CN1C(=O)C(C(N)=O)C2CC1(C)Oc1ccccc12 (centres undefined); > 100 µM (inactive)
7) Cn1c(=S)[nH]c2sc3c(c2c1=O)CCSC3; 40.5 µM (inactive)
8) CCc1nn(S(=O)(=O)c2ccc(C)cc2)c2c1CS(=O)(=O)CC2; > 100 µM (inactive)

Form field: reported GI50 of `CC(C)(C)/C(O)=C\c1nc2cc(C(F)(F)F)ccc2[nH]c1=O` > 100 µM (inactive)

Reported GI50 for `O=C(NCc1ccccc1)c1cc2ccccc2o/c1=N\c1cccc(C(F)(F)F)c1` : what is it? 71 µM (inactive)

Entry `C[Si](C)(OCCS(=O)(=O)O)OC(=C1S(=O)(=O)OCCOS1(=O)=O)c1cccc2ccccc12` has what GI50? > 100 µM (inactive)

Look at this molecule and give its reported GI50. Nc1ccn(CCCC(c2ccccc2)P(=O)(O)O)c(=O)n1 (centres undefined) > 100 µM (inactive)
